Each entry below carries its recorded IC50.
target: BCL6 (Homo sapiens (Human), UniProt P41182); experiment: Immunofluorescence high content imaging of BCL6 degradation in T47D cells; assay type: cell-based; settings: T47D cells

CNC(=O)COc1cc2cc(Nc3nc(N4CCN(CC5CCN(c6cc(F)c(C(=O)NC7CCC(=O)NC7=O)c(OC)c6)CC5)CC4)ncc3Cl)ccc2n(C)c1=O (centres unmarked) [compound 354]    < 10 nM
CNC(=O)COc1cc2cc(Nc3nc(N4CCC(CN5CC6(CCN(c7cccc(C(=O)NC8CCC(=O)NC8=O)c7OC)CC6)C5)CC4)ncc3Cl)ccc2n(C(C)C)c1=O (centres unmarked) [compound 441]    ≥ 100 nM
CNC(=O)COc1cc2cc(Nc3nc(N4C[C@@H](C)N(CC5CCN(c6cccc(C(=O)NC7CCC(=O)NC7=O)c6F)CC5)[C@@H](C)C4)ncc3Cl)ccc2n(C)c1=O (some centres unmarked) [compound 355]    50 to 100 nM
CNC(=O)COc1cc2cc(Nc3nc(NCCc4ccc(C(=O)NC5CCC(=O)NC5=O)nc4)ncc3Cl)ccc2n(C(C)C)c1=O (centres unmarked) [compound 373]    ≥ 100 nM
CCn1c(=O)c(OCC(=O)NC)cc2cc(Nc3nc(N4CCN([C@@H]5C[C@@H](COc6ccc7c(c6)C(=O)N(C6CCC(=O)NC6=O)C7=O)N(C)C5)CC4)ncc3Cl)ccc21 (some centres unmarked) [compound 357]    50 to 100 nM
CNC(=O)COc1cc2cc(Nc3nc(N4CCO[C@H](COc5ccc(C(=O)NC6CCC(=O)NC6=O)nc5)C4)ncc3Cl)ccc2n(C(C)C)c1=O (some centres unmarked) [compound 349]    ≥ 100 nM

### Prompt Tell me its IC50 given CNC(=O)COc1cc2cc(Nc3nc(N4CCN(CC5(F)CCN(c6ccc(C(=O)NC7CCC(=O)NC7=O)c(OC)c6)CC5)CC4)ncc3Cl)ccc2n(C)c1=O (centres unmarked) [compound 367] as the entry.
### Response < 10 nM

### Prompt Tell me its IC50 given CNC(=O)COc1cc2cc(Nc3nc(N4CCO[C@H](COc5ccc(C(=O)NC6CCC(=O)NC6=O)c(F)c5)C4)ncc3Cl)ccc2n(C(C)C)c1=O (some centres unmarked) [compound 350] as the entry.
### Response < 10 nM

###

Each entry below carries its recorded IC50.
target: BCL6 (Homo sapiens (Human)); test: Immunofluorescence high content imaging of BCL6 degradation in T47D cells; format: cell-based; settings: T47D cells

Study these solved cases before continuing.
CNC(=O)COc1cc2cc(Nc3nc(N4CCC[C@H](COc5cccc6c5C(=O)N(C5CCC(=O)NC5=O)C6=O)C4)ncc3Cl)ccc2n(C2CC2)c1=O (some centres unmarked) [compound 336]    10 to 50 nM
CNC(=O)COc1cc2cc(Nc3nc(N4CCN(CC5CCN(c6cc7c(cc6OC)C(=O)N(C6CCC(=O)NC6=O)C7=O)CC5)CC4)ncc3Cl)ccc2n(C(C)C)c1=O (centres unmarked) [compound 404]    10 to 50 nM
CNC(=O)COc1cc2cc(Nc3nc(N4CCC(F)(CN5CCN(c6ccc7c(c6)C(=O)N(C6CCC(=O)NC6=O)C7=O)CC5)CC4)ncc3Cl)ccc2n(C)c1=O (centres unmarked) [compound 340]    < 10 nM

### Prompt Tell me its IC50 given CCn1c(=O)c(OCC(=O)NC)cc2cc(Nc3nc(N4CCC(OC5CN(C6CN(c7ccc8c(c7)C(=O)N(C7CCC(=O)NC7=O)C8=O)C6)C5)CC4)ncc3Cl)ccc21 (centres unmarked) [compound 328] as the entry.
### Response < 10 nM

### Prompt Tell me its IC50 given CNC(=O)COc1cc2cc(Nc3nc(N4CCN(C(C)C5CCN(c6ccc7c(c6)C(=O)N(C6CCC(=O)NC6=O)C7=O)CC5)CC4)ncc3Cl)ccc2n(C)c1=O (centres unmarked) [compound 335] as the entry.
### Response < 10 nM

###

target: UniProtKB P41182; assay: BCL6 TR-FRET assay (BCL6-Avitag-Biotin / BCoR-Cy5 peptide); type: binding; details: read-out: IC50
Each entry below carries its recorded IC50.

Study these solved cases before continuing.
Cn1c(=O)n(CCC(C)(C)O)c2cc(Nc3nc(N4CCN(CC5CCN(c6cccc7c6C(=O)N(C6CCC(=O)NC6=O)C7=O)CC5)CC4)ncc3Cl)ccc21 (stereo not shown)    0.05 to 0.1 µM
CNC(=O)COc1cc2cc(Nc3nc(N4CCC5(CCN(CC6CCN(c7cccc8c7C(=O)N(C7CCC(=O)NC7=O)C8=O)CC6)CC5)CC4)ncc3Cl)ccc2n(C(C)C)c1=O (stereo not shown)    < 0.01 µM
CNC(=O)COc1cc2cc(Nc3nc(N4CCC(N5CCC6(CCN(c7ccc8c(c7)C(=O)N(C7CCC(=O)NC7=O)C8=O)CC6)C5)CC4)ncc3Cl)ccc2n(C(C)C)c1=O (stereo not shown)    < 0.01 µM
CNC(=O)COc1cc2cc(Nc3nc(N4CCC(CN5CCC6(CC5)CCN(c5ccc7c(c5)C(=O)N(C5CCC(=O)NC5=O)C7=O)CC6)CC4)ncc3Cl)ccc2n(C(C)C)c1=O (stereo not shown)    < 0.01 µM
CNC(=O)COc1cc2cc(Nc3nc(N4CCC(O[C@@H]5C[C@H](COc6cccc7c6C(=O)N(C6CCC(=O)NC6=O)C7=O)N(C)C5)CC4)ncc3Cl)ccc2n(C(C)C)c1=O (stereo partly shown)    ≥ 0.1 µM
CNC(=O)COc1cc2cc(Nc3nc(N4CCC(CN5CC(N6CCN(c7cccc8c7C(=O)N(C7CCC(=O)NC7=O)C8=O)CC6)C5)CC4)ncc3Cl)ccc2n(C(C)C)c1=O (stereo not shown)    < 0.01 µM
CNC(=O)COc1cc2cc(Nc3nc(N4CCC5(CCN(CC6CCN(c7ccc8c(c7)C(=O)N(C7CCC(=O)NC7=O)C8=O)CC6)CC5)CC4)ncc3Cl)ccc2n(C(C)C)c1=O (stereo not shown)    < 0.01 µM
CNC(=O)COc1cc2cc(Nc3nc(N4CC5(CCC(OC6CCN(c7ccc8c(c7)C(=O)N(C7CCC(=O)NC7=O)C8=O)CC6)CC5)C4)ncc3Cl)ccc2n(C(C)C)c1=O (stereo not shown)    < 0.01 µM

### Prompt Tell me its IC50 given CNC(=O)COc1cc2cc(Nc3nc(N4CCN(C(C)(C)C5CCN(c6c(OC)ccc(C(=O)NC7CCC(=O)NC7=O)c6F)CC5)CC4)ncc3Cl)ccc2n(C)c1=O (stereo not shown) as the entry.
### Response < 0.01 µM

### Prompt Tell me its IC50 given CNC(=O)COc1cc2cc(Nc3nc(N4CCN(CC5CN(C6CCN(c7cccc8c7C(=O)N(C7CCC(=O)NC7=O)C8=O)CC6)C5)CC4)ncc3Cl)ccc2n(C(C)C)c1=O (stereo not shown) as the entry.
### Response < 0.01 µM

###

molecular target: BCL6 (Homo sapiens (Human)); experiment: Immunofluorescence high content imaging of BCL6 degradation in T47D cells; type: cell-based
Each entry below carries its recorded IC50.

Study these solved cases before continuing.
CNC(=O)COc1cc2cc(Nc3nc(N4CCN(C(C)(C)C5CCN(c6ccc7c(c6)C(=O)N(C6CCC(=O)NC6=O)C7=O)CC5)CC4)ncc3Cl)ccc2n(C(C)C)c1=O (stereo not drawn)    10 to 50 nM
CNC(=O)COc1cc2cc(Nc3nc(N4CCN(CC5CCN(c6ccc(F)c(C(=O)NC7CCC(=O)NC7=O)c6)CC5)CC4)ncc3Cl)ccc2n(C)c1=O (stereo not drawn)    10 to 50 nM
CNC(=O)COc1cc2cc(Nc3nc(N4CCC(CCOC5CN(c6ccc7c(c6)C(=O)N(C6CCC(=O)NC6=O)C7=O)C5)CC4)ncc3Cl)ccc2n(C)c1=O (stereo not drawn)    < 10 nM
CNC(=O)COc1cc2cc(Nc3nc(N4CCCN(c5ccc6c(c5)C(=O)N(C5CCC(=O)NC5=O)C6=O)CC4)ncc3Cl)ccc2n(C)c1=O (stereo not drawn)    50 to 100 nM
CNC(=O)COc1cc2cc(Nc3nc(N4CCN(C(C)(C)C5CCN(c6cccc7c6C(=O)N(C6CCC(=O)NC6=O)C7=O)CC5)CC4)ncc3Cl)ccc2n(C)c1=O (stereo not drawn)    < 10 nM

### Prompt Tell me its IC50 given CNC(=O)COc1cc2cc(Nc3nc(N4CCC(OC5CCN(c6cccc7c6C(=O)N(C6CCC(=O)NC6=O)C7=O)CC5)CC4)ncc3Cl)ccc2n(C(C)C)c1=O (stereo not drawn) as the entry.
### Response 10 to 50 nM

###

biological target: BCL6 (Homo sapiens (Human), UniProt P41182); assay: Immunofluorescence high content imaging of BCL6 degradation in T47D cells; format: cell-based; details: T47D cells
readout: Dmax

Study these solved cases before continuing.
CNC(=O)COc1cc2cc(Nc3nc(N4CCN(CC5CCC6(CC5)CN(c5ccc(OC)c7c5C(=O)N(C5CCC(=O)NC5=O)C7=O)C6)CC4)ncc3Cl)ccc2n(C(C)C)c1=O (centres unmarked)    < 50%
CNC(=O)COc1cc2cc(Nc3nc(N4CCC(CCN5CCN(c6ccc7c(c6)C(=O)N(C6CCC(=O)NC6=O)C7=O)CC5)CC4)ncc3Cl)ccc2n(C)c1=O (centres unmarked)    50 to 70%
CNC(=O)COc1cc2cc(Nc3nc(N4CCC(F)(CN5CCN(c6cccc7c6C(=O)N(C6CCC(=O)NC6=O)C7=O)CC5)CC4)ncc3Cl)ccc2n(C)c1=O (centres unmarked)    50 to 70%
CCOc1cc(N2CCC(CN3CCN(c4ncc(Cl)c(Nc5ccc6c(c5)cc(OCC(=O)NC)c(=O)n6C)n4)CC3)CC2)ccc1C(=O)NC1CCC(=O)NC1=O (centres unmarked)    < 50%

--- query ---
### Prompt Tell me its Dmax given CNC(=O)COc1cc2cc(Nc3nc(N4CCC(CN5CC6(CCN(c7cccc8c7C(=O)N(C7CCC(=O)NC7=O)C8=O)CC6)C5)CC4)ncc3Cl)ccc2n(C(C)C)c1=O (centres unmarked) as the entry.
### Response 50 to 70%
